# tested-on: BaIMPDH (Bacillus anthracis)
# Sequence (A0A6L8P2U9 1-487): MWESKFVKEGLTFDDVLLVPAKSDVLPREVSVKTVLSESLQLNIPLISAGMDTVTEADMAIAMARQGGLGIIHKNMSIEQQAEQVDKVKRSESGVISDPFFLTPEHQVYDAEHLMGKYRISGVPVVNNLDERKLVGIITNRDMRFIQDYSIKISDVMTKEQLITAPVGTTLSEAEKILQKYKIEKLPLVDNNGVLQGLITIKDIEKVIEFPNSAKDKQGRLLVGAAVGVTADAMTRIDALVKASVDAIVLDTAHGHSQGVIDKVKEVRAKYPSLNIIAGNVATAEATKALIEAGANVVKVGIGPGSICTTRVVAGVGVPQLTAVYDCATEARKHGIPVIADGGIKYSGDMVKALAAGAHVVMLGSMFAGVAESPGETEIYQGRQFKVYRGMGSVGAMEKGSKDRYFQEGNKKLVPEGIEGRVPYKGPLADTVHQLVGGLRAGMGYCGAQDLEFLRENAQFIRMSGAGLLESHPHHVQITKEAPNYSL
# Assay type: binding
# condition-notes: read-out: calculated value of Ki
observation-type: pKi
# pKi = -log10(concentration in molar units)

Which measured pKi belongs to Nc1nc2c(ncn2[C@@H]2O[C@H](COP(=O)(O)O)[C@@H](O)[C@H]2O)c(=O)o1 [OxMP, oxanosine monophosphate] , tested on BaIMPDH (Bacillus anthracis)?
6.48

====

# tested-on: CpIMPDH (Cryptosporidium parvum, UniProt Q8T6T2)
# Sequence (Q8T6T2 whole entry): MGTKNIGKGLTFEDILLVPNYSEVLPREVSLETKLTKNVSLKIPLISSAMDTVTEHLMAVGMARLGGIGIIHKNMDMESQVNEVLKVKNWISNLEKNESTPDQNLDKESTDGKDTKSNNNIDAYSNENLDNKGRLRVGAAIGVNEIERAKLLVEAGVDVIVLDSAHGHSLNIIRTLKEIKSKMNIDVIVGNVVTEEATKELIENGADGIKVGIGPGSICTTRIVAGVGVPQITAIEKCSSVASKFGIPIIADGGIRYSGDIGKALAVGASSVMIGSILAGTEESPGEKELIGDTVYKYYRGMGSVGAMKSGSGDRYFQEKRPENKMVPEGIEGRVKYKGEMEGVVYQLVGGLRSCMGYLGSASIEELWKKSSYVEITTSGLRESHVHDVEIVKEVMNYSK
# assay-text: biochemical
# Assay type: biochemical
# condition-notes: read-out: Kis, OxMP; versus IMP, competitive; NAD+ 500 μM
observation-type: Ki (µM)
Note: unit µM is implicit; provide only the numeric part.

Please give the measured Ki for this molecule: Nc1nc2c(ncn2[C@@H]2O[C@H](COP(=O)(O)O)[C@@H](O)[C@H]2O)c(=O)o1 [OxMP, oxanosine monophosphate]
0.09

Ref: paper PMC6467267
